- System: Staphylococcus epidermidis
- PROCEDURE_TEXT: Antibacterial activity against methicillin-sensitive Staphylococcus epidermidis isolate cpu0347 after 18 to 20 hrs by agar dilution method
- Assay type: functional
PARAMETER: MIC (µg/mL)
Hi! Could you send only the number? It should be in µg/mL, unit omitted.

Exercise: Please tell me: MIC of C=C[C@]1(C)C[C@@H](OC(=O)CSCCN(CC)CC)[C@]2(C)[C@H](C)CC[C@]3(CCC(=O)[C@H]32)[C@@H](C)[C@@H]1O [TIAMULIN] , system Staphylococcus epidermidis?
Key: 0.5

Exercise: Please tell me: MIC of C=C[C@]1(C)C[C@@H](OC(=O)CSCc2csc(NC(=O)CNCC(=O)OC)n2)[C@]2(C)[C@H](C)CC[C@]3(CCC(=O)[C@H]32)[C@@H](C)[C@@H]1O , system Staphylococcus epidermidis?
Key: 0.5

Exercise: Please tell me: MIC of C=C[C@]1(C)C[C@@H](OC(=O)CSCc2csc(NC(=O)CN(CC)CC)n2)[C@]2(C)[C@H](C)CC[C@]3(CCC(=O)[C@H]32)[C@@H](C)[C@@H]1O , system Staphylococcus epidermidis?
Key: 0.25

Exercise: Please tell me: MIC of C=C[C@]1(C)C[C@@H](OC(=O)CSCc2csc(NC(=O)CNC3CCCCC3)n2)[C@]2(C)[C@H](C)CC[C@]3(CCC(=O)[C@H]32)[C@@H](C)[C@@H]1O , system Staphylococcus epidermidis?
Key: 0.5
